target: Bromodomain-containing protein 4 (Homo sapiens) (UniProt O60885); conditions: Compound concentration 20.0 uM, Protein concentration 2.0 uM, Result type QC Liability
observable: ΔTm (°C)
Numbers only, in °C.

Worked cases, answers included:
COc1ccccc1Nc1nc(-c2nn(Cc3c(F)cc(OCCCO)cc3F)c3ccccc23)ncc1OC; -0.6
CNC(=O)c1nnc(NC(=O)C2CC2)cc1Nc1cccc(-c2ncn(C)n2)c1OC; -2.45
O=C(Nc1ccc(N2CCC(C(=O)N3CCOCC3)CC2)cc1)c1cnc(Oc2ccccc2)nc1; -0.8
CC(C)C(=O)N1CCC(c2cn(C)c3ncc(NC(=O)c4cccc(C#N)c4)c(C(F)(F)F)c23)CC1; -2.27

# input for lookup
IN: Bench note: what ΔTm did Cc1cc(OC2CCS(=O)(=O)CC2)cc(C)c1-c1cccc(COc2ccc(CCC(=O)O)c(F)c2)c1 show?
OUT: -5.08

Taken from ChEMBL document CHEMBL5308504.
